Form field: log10(MIC) (one value per entry).
- System: Mycolicibacterium aurum DSM 43999 (ATCC 23366)
- method summary: Antimycobacterial microdilution broth assay (resazurin), M. aurum
- Type: cell-based
- condition: Mycolicibacterium aurum, 72 h, read-out: MIC M. aurum, microdilution broth, resazurin, 72 h
Use the decimal logarithm of MIC (µg/mL).

Examples with their reported log10(MIC) follow.
[
  {
    "compound": "COc1ccc2cc3[n+](cc2c1OCc1cccc(Br)c1)CCc1cc2c(cc1-3)OCO2 [16f, 9-O-(3-brombenzyl)berberine chloride]",
    "log10(MIC)": 0.19
  },
  {
    "compound": "COc1ccc2cc3[n+](cc2c1OCc1ccc(Br)cc1)CCc1cc2c(cc1-3)OCO2 [16g, 9-O-(4-brombenzyl)berberine chloride]",
    "log10(MIC)": 0.59
  },
  {
    "compound": "COc1cc2c3c(c1O)-c1c(ccc(OC)c1OC)C[C@@H]3N(C)CC2",
    "log10(MIC)": 2.40
  },
  {
    "compound": "CCOC1c2c(ccc(OC)c2OC)-c2ccc3cc4c(cc3c2N1C)OCO4 (centres unmarked) [compound 3, 6-ethoxydihydrochelerythrine]",
    "log10(MIC)": 1.19
  }
]

Exercise: Item COc1ccc2cc3[n+](cc2c1OCc1ccccc1C)CCc1cc2c(cc1-3)OCO2 [16b, 9-O-(2-methylbenzyl)berberine chloride] has what recorded log10(MIC)?
Solution: 0.89

Exercise: Item COc1cc2c(cc1OC)-c1c(OC)c(OC)cc3c1[C@H](C2)N(C)CC3 has what recorded log10(MIC)?
Solution: 2.10

Exercise: Item COc1cc2c(cc1O)[C@@H]1Cc3ccc(OC)c(O)c3CN1CC2 has what recorded log10(MIC)?
Solution: 2.10

Exercise: Item COc1ccc2cc3[n+](cc2c1OCc1cccc(C)c1)CCc1cc2c(cc1-3)OCO2 [16c, 9-O-(3-methylbenzyl)berberine chloride] has what recorded log10(MIC)?
Solution: 0.49

Exercise: Item COc1ccc2cc3[n+](cc2c1OCc1ccc(C)cc1)CCc1cc2c(cc1-3)OCO2 [16d, 9-O-(4-methylbenzyl)berberine chloride] has what recorded log10(MIC)?
Solution: 0.80

Exercise: Item COc1ccc2c(c1OC)CN(C)c1c-2ccc2cc3c(cc12)OCO3 [compound 2, dihydrochelerythrine] has what recorded log10(MIC)?
Solution: 2.40
